# MEASURED_ON: PsCA1 (Pseudomonas aeruginosa, UniProt Q9I730)
# Sequence (Q9I730 entry or part of it): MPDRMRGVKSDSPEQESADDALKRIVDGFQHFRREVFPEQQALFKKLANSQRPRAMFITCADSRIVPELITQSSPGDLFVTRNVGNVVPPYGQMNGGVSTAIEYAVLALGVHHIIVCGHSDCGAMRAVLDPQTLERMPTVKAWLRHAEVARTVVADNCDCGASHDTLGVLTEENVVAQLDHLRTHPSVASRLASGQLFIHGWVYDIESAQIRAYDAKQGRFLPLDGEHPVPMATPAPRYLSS
# ASSAY_SUMMARY: biochemical
# CONDITIONS: stopped-flow CO2 hydrase assay, mean from 3 assays
# Experimental: The CA isoforms belong to different classes of CA enzymes characterized by different kinetic and structural features to assess isoform selectivity. An Applied Photophysics stopped-flow instrument was used to assay CA-catalyzed CO2 hydration activity. […] The uncatalyzed rates were determined in the same manner and subtracted from the total observed rates. […]
Catalogue of compounds with associated pKi
Worth noting: pKi values are minus log10 of concentrations stated in mol/L.

// worked examples, pKi included
{"SMILES_RECORD": "CN1C(=CC=C2CCCC(C=CC3=[N+](C)c4ccc5ccccc5c4C3(C)C)=C2NCCNC(=O)Nc2ccc(S(N)(=O)=O)cc2)C(C)(C)c2c1ccc1ccccc21", "pKi": 7.23}
{"SMILES_RECORD": "CC1(C)C(/C=C/C2=C(NCCc3ccc(S(N)(=O)=O)cc3)C(=C/C=C3\\N(CCCCS(=O)(=O)O)c4ccc5ccccc5c4C3(C)C)/CCC2)=[N+](CCCCS(=O)(=O)[O-])c2ccc3ccccc3c21", "pKi": 7.19}
{"SMILES_RECORD": "CC1(C)C(/C=C/C2=C(NCCNC(=O)Nc3ccc(S(N)(=O)=O)cc3)C(=C/C=C3\\N(CCCCS(=O)(=O)O)c4ccc5ccccc5c4C3(C)C)/CCC2)=[N+](CCCCS(=O)(=O)[O-])c2ccc3ccccc3c21", "pKi": 7.05}
{"SMILES_RECORD": "CN1C(=CC=C2CCCC(C=CC3=[N+](C)c4ccc5ccccc5c4C3(C)C)=C2NCCc2ccc(S(N)(=O)=O)cc2)C(C)(C)c2c1ccc1ccccc21", "pKi": 7.15}
{"SMILES_RECORD": "CCCN1C(=CC=C2CCCC(C=CC3=[N+](CCC)c4ccccc4C3(C)C)=C2NCCc2ccc(S(N)(=O)=O)cc2)C(C)(C)c2ccccc21", "pKi": 7.22}

For "CCCN1C(=CC=C2CCCC(C=CC3=[N+](CCC)c4ccccc4C3(C)C)=C2NCCNC(=O)Nc2ccc(S(N)(=O)=O)cc2)C(C)(C)c2ccccc21" the compound record lists pKi as 7.33
